- Test system: Human recombinant GST-PI3K
- TEST_NAME: PI3K induced-lipid phosphorylation, neomycin-SPA scintillation proximity assay
- Assay type: biochemical
- MEASUREMENT_SETUP: Human recombinant GST-PI3K, SPA
MEASURED_METRIC: IC50 (nM)

Consider the worked cases shown below.
COc1cc(Nc2nc3ccccc3nc2NS(=O)(=O)c2cn(C)cn2)cc(C(=O)NCCO)c1	100
COc1ccc(CC2CCN(C)CC2)c(Nc2nc3ccccc3nc2NS(=O)(=O)c2cccnc2)c1	45
COc1ccc(CCCO)c(Nc2nc3ccccc3nc2NS(=O)(=O)c2cn(C)c(CS(C)(=O)=O)n2)c1	87

(I) COc1ccc(CCCO)c(Nc2nc3ccccc3nc2NS(=O)(=O)C(C)C)c1
(II) COc1ccc(CC2CCC(O)CC2)c(Nc2nc3ccccc3nc2NS(=O)(=O)c2ccc(CN(C)C)cc2)c1 (centres unmarked)
(III) COc1ccc(CC2CC(C)(C)N(C)C(C)(C)C2)c(Nc2nc3ccccc3nc2NS(=O)(=O)c2cn(C)cn2)c1
Ask: # desc sort on IC50 across 3 compounds Reply with the item labels sorted in the order that was asked for.
Reply: III, I, II
(III: 420 nM, I: 72 nM, II: 26 nM)

(1) COc1ccc(CCO)c(Nc2nc3ccccc3nc2NS(=O)(=O)c2cccnc2)c1
(2) COc1ccc(C(CO)CO)c(Nc2nc3ccccc3nc2NS(=O)(=O)c2cn(C)cn2)c1
Ask: Compare reported IC50 values for 1 and 2 . Which is lower? Let me know the label of the one you choose.
Reply: 1

* * *

- Test system: Human recombinant GST-PI3K
- TEST_NAME: PI3K induced-lipid phosphorylation, neomycin-SPA scintillation proximity assay
- Assay type: biochemical
- MEASUREMENT_SETUP: Human recombinant GST-PI3K, SPA
MEASURED_METRIC: IC50 (nM)

Consider the worked cases shown below.
COc1ccc(CCO)c(Nc2nc3ccccc3nc2NS(=O)(=O)C2CCS(=O)(=O)C2)c1 (centres unmarked) [Example 56]	86
COc1ccc(CC2CCCCC2)c(Nc2nc3ccccc3nc2NS(=O)(=O)c2cccnc2)c1 [Example 19]	490
COc1ccc(CC2CCS(=O)(=O)CC2)c(Nc2nc3ccccc3nc2NS(=O)(=O)c2ccc(CN(C)C)cc2)c1 [Example 85]	10
CCS(=O)(=O)Nc1nc2ccccc2nc1Nc1cc(OC)ccc1CCO [Example 38]	60
COc1ccc(CCO)c(Nc2nc3ccccc3nc2NS(=O)(=O)c2ccc(C(=O)N(C)C)cc2)c1 [Example 32]	250
COCCc1ccc(OC)cc1Nc1nc2ccccc2nc1NS(=O)(=O)C1CCN(C(C)=O)CC1 [Example 101]	300
COc1ccc(CCO)c(Nc2nc3ccccc3nc2NS(=O)(=O)c2ccc(NC(=O)CO)cc2)c1 [Example 69]	65
COCCc1ccc(OC)cc1Nc1nc2ccccc2nc1NS(=O)(=O)c1cn(C)c(CS(C)(=O)=O)n1 [Example 79]	200

(I) COc1cc(Nc2nc3ccccc3nc2NS(=O)(=O)c2cn(C)cn2)cc(C(=O)N(C)C)c1 [Example 75]
(II) COc1ccc(CC2CCC(O)CC2)c(Nc2nc3ccccc3nc2NS(=O)(=O)c2cn(C)cn2)c1 (centres unmarked) [Example 22]
(III) COc1ccc(CC2CCN(C(C)=O)CC2)c(Nc2nc3ccccc3nc2NS(=O)(=O)c2cccnc2)c1 [Example 17]
(IV) COc1ccc(CC2CCS(=O)(=O)CC2)c(Nc2nc3ccccc3nc2NS(=O)(=O)c2cn(C)cn2)c1 [Example 26]
Ask: # desc sort on IC50 across 4 molecules Reply with the item labels sorted in the order that was asked for.
Reply: I, III, IV, II

(A) COc1ccc(CCO)c(Nc2nc3ccccc3nc2NS(=O)(=O)c2ccc(CCCO)cc2)c1 [Example 93]
(B) COc1ccc(CCOC(=O)[C@@H](NC(=O)OCC2c3ccccc3-c3ccccc32)C(C)C)c(Nc2nc3ccccc3nc2NS(=O)(=O)c2cn(C)cn2)c1 [Example 103]
Ask: Compare reported IC50 values for A and B . Which is lower? Let me know the label of the one you choose.
Reply: A
